B1: tRNA (parent)
chain: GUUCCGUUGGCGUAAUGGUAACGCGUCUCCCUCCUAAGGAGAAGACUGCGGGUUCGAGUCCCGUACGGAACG

Variants of: B1
experiment-summary: yeast fitness relative to wild type (ratio to wild type); higher = fitter; tRNA-Arg(CCU), competitive growth, 37 C, YPD
This sample holds only a part of the variants without activity.
assay-endpoint: yeast fitness
Give the value as a plain number.

Example entries and their recorded answers appear below.
INSERT INTO results (residue_change, assay_value) VALUES
  ('U16A C30A A42C', 0.558),
  ('G25A U28A A43U', 0.835),
  ('A43G C55U C61U', 0.543);

According to the records, this variant C5A C24G U26A C29G U32A displays yeast fitness of 0.531

Sure, the documented yeast fitness for U35G G67A is 0.616

Per the records, this variant ( G25C C49U G51A ) has yeast fitness equal to 0.568

So for C30G G68C , the logged yeast fitness turned out to be 0.691

response.value for G17C C62U A65C (field: yeast fitness) = 0.593

So, C4U A21G C46A U64C ? Its yeast fitness was 0.676

variant A45U C46A G63A , yeast fitness observed: 1.06

Data point: A21G G48C ; yeast fitness = 1.01

For record G18A U59G the listed yeast fitness is 0.776

Reported yeast fitness ( C30U A70C ) = 0.869

For reference, reported yeast fitness for A45G G58A U64A stands at 0.71

According to the records, this variant A42C G52C A69C displays yeast fitness of 0.607

In plain terms, C22G C46A G48A A57U C60A has a documented yeast fitness of 0.576

Briefly, yeast fitness measured for U7G G25C G58C : 0.558

Kindly note the recorded yeast fitness for G9C A70G , which is 0.615

yeast fitness in this record for U7A A21G C30G A36G C46G A57U : 0.545
